assay.remarks: probe aDKK1 binding to arrayed compounds – biochemical, biotinylated probe, 635/667 nm fluorescence, primary screen (AID 1099);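 also: score merges 667nm spot fluorescence with signal to noise across triplicate slides; reference of the scale not given here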
recorded.conditions: small-molecule microarray, higher = more signal
# composite z-score per record follows
result.type: composite z-score

> print(dat)
                                    compound        result.type  data.value
 1  C=C(CCCC)C(=O)CC[C@H](OC(=O)c1ccccc1-c1ccccc1C(=O)O)c1ccc(CO)o1  composite z-score       -0.28
 2  Cc1cc(C)c(C(O)C2C=CC3C(=O)NC(=O)C3N2Nc2ccccn2)c(C)c1 (stereo not given)  composite z-score       0.118
 3  O=C1C2C=CC(C(O)c3ccc(Br)cc3)N(n3cnnc3)C2C(=O)N1Cc1ccccc1 (stereo not given)  composite z-score       0.578
 4  C=C(CCCC)/C(=C/C[C@@H](OC(=O)c1ccncc1)c1ccc(CO)o1)c1cc(C(=O)OC)ccc1OC  composite z-score      0.0296
 5   O=[N+]([O-])c1ccc(C[n+]2ccc(CCCO)cc2)o1  composite z-score       0.762
 6  O=C1OCC=C[C@H]2OC34C=CCN(c5ccc(Cl)cc5)C(=O)[C@H]3N(CCCO)C(=O)[C@@H]4[C@@H]12 (stereo not given in full)  composite z-score      -0.477
 7  O=C1[C@H]2C=C(Br)[C@H](C[C@@H]2OCCOCCO)[C@@]12CO2  composite z-score      -0.119
 8                     C[n+]1ccc2ccc(O)cc2c1  composite z-score      -0.147
 9  O=C1C2C=CC(C(O)c3ccc(-c4ccccc4)s3)N(Nc3ccccc3F)C2C(=O)N1c1ccccc1 (stereo not given)  composite z-score        1.22
10  O=C1C2C=CC(C(O)C3CC=CCC3)N(n3cnnc3)C2C(=O)N1Cc1ccccc1 (stereo not given)  composite z-score        -0.3

---

assay.remarks: compound effects on hepatocellular carcinoma cell viability – HepG2, calcein-AM fluorescence, 48 h, basal, profiling panel (AID 1164); also: test concentration not given here
recorded.conditions: higher = more signal
Given measured z-score, output Y if it is greater than or equal to 0.2 and N if not.

molecule	class.assignment
CN1C(=O)C2C=CC(C(O)C=Cc3ccc([N+](=O)[O-])cc3)N(N3CCCCC3)C2C1=O (stereo not given)	N
[N-]=[N+]=Nc1ccccc1[C@@H]1OC(c2ccc(OCCCO)cc2)=N[C@]1(CCS(=O)(=O)c1ccccc1)C(=O)O	Y
CCCCCCC#C[Si](O[C@H](c1ccccc1)c1cn([C@H](C)c2ccccc2)nn1)(C(C)C)C(C)C	N
O=C1OCC=C[C@H]2OC34C=CCN(c5ccc6ccccc6c5)C(=O)[C@H]3N(CCO)C(=O)[C@@H]4[C@@H]12 (stereo not given in full)	Y
C=CCNC(=O)[C@H]1[C@@H]2C(=O)O[C@@H](c3ccccc3)[C@@H](c3ccccc3)N2[C@@H](c2ccc(O)cc2)[C@]12C(=O)Nc1ccc(C#Cc3ccc(OC)cc3)cc12	N
Cc1ccc(S[C@]2(C(=O)NCC(C)C)CC(=O)N(Cc3ccccc3)[C@@H]2c2ccc(CO)cc2)cc1	N
COCCOC(=O)N1C(=O)[C@@]2(c3cc(C#CC4=CCCCC4)ccc31)[C@H](c1ccc(OCCO)cc1)N1[C@H](c3ccccc3)[C@H](c3ccccc3)OC(=O)[C@H]1[C@@H]2C(=O)Nc1nc2ccccc2s1	N
C=CCC(OC(C)=O)[C@@H]1[C@@H](N(Cc2cc3ccccc3o2)C(=O)c2cccc3ccccc23)c2cc(OCCCO)ccc2N1C(=O)Cc1ccc2ccccc2c1 (stereo not given in full)	Y
COCCOC(=O)N1C(=O)[C@@]2(c3cc(C#Cc4ccc(OC)cc4)ccc31)[C@H](c1ccc(O)cc1)N1[C@H](c3ccccc3)[C@H](c3ccccc3)OC(=O)[C@H]1[C@@H]2C(=O)N1CCN(c2ncccn2)CC1	N
O=C1OCCC=C[C@H]2OC34C=CCN(c5ccc6ccccc6c5)C(=O)[C@H]3N(CCCCCCO)C(=O)[C@@H]4C12 (stereo not given in full)	Y
COCCn1c(C(=O)N2CCCC2)cc2c1C[C@H]1CN(C(=O)c3ccccc3)[C@@](Cc3ccc(OC)cc3)(C(=O)OC)[C@@H]21	Y
COCCOC(=O)N1C(=O)[C@@]2(c3ccccc31)[C@H](C(=O)N1CCCCCCC1)[C@H]1C(=O)O[C@H](c3ccccc3)[C@H](c3ccccc3)N1[C@@H]2c1ccccc1OCCO	Y
C=CCC(OC(C)=O)[C@@H]1[C@@H](N(Cc2ccc(-c3cccc(C(F)(F)F)c3)o2)C(=O)Cc2ccc(OC)cc2)c2cc(OCCCO)ccc2N1C(=O)Cc1ccc(OC)cc1 (stereo not given in full)	Y
C=C(C(=O)CC[C@H](OC(=O)c1cccnc1)c1ccccc1OCCO)C(C)C	N
O=C1C[C@@](C(=O)O)(c2ccc([N+](=O)[O-])cc2)[C@@H](c2ccc(CO)cc2I)N1C1CCCCC1	Y
COC(=O)[C@@]1(Cc2ccc(OC)cc2)[C@H]2c3cc(C(=O)N(C)C)n(CCSCCO)c3C[C@H]2CN1C(=O)c1ccccc1	Y
C[N+](C)(C)CCCCNC(=O)[C@H]1C[C@H]2C(=O)N3CCC[C@H]3C(=O)N2[C@H]1c1ccc(O)cc1	N
CN(C)CCCN1C(=O)[C@@]2(c3ccc([N+](=O)[O-])cc3)CC(=O)N(C3CCCCC3)[C@@H]2c2ccc(CO)cc21	N
CC(=O)NCCCC[C@@H]1NC(=O)[C@@H]2C[C@H](C(=O)NCc3ccc(F)cc3)[C@H](c3ccc(O)cc3)N2C1=O	N
CCN(CC)c1ccc(N2CC=CC34O[C@@H]5C=CCCOC(=O)C5[C@H]3C(=O)N(CCCO)[C@@H]4C2=O)cc1 (stereo not given in full)	N
C=C(C(=O)CC[C@@H](OC(C)=O)c1ccc(OCCO)cc1)C(C)C	N
C=C(COC)C(=O)CC[C@H](OC(=O)c1cccnc1)c1ccccc1OCCO	N
O=C1NC(=O)C2C1C=CC(C(O)c1cccs1)N2Nc1ccccn1 (stereo not given)	Y
Cc1ccc(S[C@]2(C(=O)NCc3ccccc3)CC(=O)N(Cc3cc(C(F)(F)F)cc(C(F)(F)F)c3)[C@@H]2c2ccc(CO)cc2)cc1	Y
O=C1OCC=C[C@H]2OC34C=CCN(c5ccc(Cl)cc5)C(=O)[C@H]3N(CCCO)C(=O)[C@@H]4[C@@H]12 (stereo not given in full)	N
O=c1cccc(-c2ccccc2)o1	N
Cc1ccc([C@H]2C(C(=O)O)=C[C@@H](C(C)C)N2S(=O)(=O)c2ccc(C)cc2)cc1	N
Cc1ccc(F)cc1S(=O)(=O)N[C@@H]1CCN(Cc2ccc(C(F)(F)F)cc2)C1	N
Cc1ccc(S[C@]2(C(=O)NCCCN(C)C)CC(=O)N(Cc3ccccc3)[C@@H]2c2ccc(CO)cc2)cc1	N
NC(=O)[C@]1(Cc2ccccc2)N=C(c2ccc(OCCCO)cc2)O[C@@H]1c1ccccc1	N
